# TARGET_SYSTEM: Short transient receptor potential channel 6 (Mus musculus) (UniProt Q61143)
# Sequence (Q61143 whole entry, looked up): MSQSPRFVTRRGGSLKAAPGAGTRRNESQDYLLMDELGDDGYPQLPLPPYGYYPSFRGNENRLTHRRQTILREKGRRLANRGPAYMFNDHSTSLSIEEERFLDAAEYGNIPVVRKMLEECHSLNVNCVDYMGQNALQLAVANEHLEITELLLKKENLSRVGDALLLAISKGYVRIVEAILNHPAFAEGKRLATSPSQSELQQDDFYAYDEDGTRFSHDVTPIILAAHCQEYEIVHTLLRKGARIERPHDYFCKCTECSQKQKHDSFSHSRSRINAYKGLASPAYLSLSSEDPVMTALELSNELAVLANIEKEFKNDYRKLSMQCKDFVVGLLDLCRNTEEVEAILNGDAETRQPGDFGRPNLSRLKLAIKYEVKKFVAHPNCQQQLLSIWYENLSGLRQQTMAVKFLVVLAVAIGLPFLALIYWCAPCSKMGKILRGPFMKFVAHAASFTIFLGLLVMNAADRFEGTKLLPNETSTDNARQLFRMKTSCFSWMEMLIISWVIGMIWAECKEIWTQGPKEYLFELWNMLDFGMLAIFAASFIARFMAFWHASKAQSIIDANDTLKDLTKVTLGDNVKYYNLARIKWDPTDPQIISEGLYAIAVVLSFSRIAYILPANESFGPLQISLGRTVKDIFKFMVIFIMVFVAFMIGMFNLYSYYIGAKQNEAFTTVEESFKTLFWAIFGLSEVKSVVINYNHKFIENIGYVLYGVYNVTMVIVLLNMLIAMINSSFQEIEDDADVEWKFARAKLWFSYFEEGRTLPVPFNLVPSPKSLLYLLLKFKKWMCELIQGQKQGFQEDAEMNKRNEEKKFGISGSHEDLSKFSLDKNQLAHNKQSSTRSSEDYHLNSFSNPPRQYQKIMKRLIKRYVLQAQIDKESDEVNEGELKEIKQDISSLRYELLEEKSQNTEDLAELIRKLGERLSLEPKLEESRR
# EXPERIMENTAL_DETAILS: mouse TRPC6 channel blockers, analog testing – HEK293 cells, membrane potential dye, single concentration, selectivity assay for selective TRPC4 inhibitor project, SAR follow-up (AID 492981)
# CONDITION: membrane potential dye fluorescence, at 10 µM, active compounds read high
Results filed as inconclusive are left out.
OUTCOME_MEASURE: inhibition (%)

Reference set (5 entries):
Cc1cc(N2CCN(c3ncccn3)CC2)nc2ccccc12 = 6.28
Cc1cc(N2CCCCC2)nc2ccccc12 = 42.7
Cc1cc(N2CCNCC2)nc2ccccc12 = 37.2
Cc1cc(N2CCN(c3ccccc3C#N)CC2)nc2ccccc12 = 0.71
Cc1cc(N2CCCC2)nc2c(C)cccc12 = 33.9

P. Cc1ccc2nc(N3CCCCC3)cc(C)c2c1
Q. FC(F)(F)c1cc(N2CCCCC2)nc2ccccc12
R. CCN(CC)c1cc(C)c2ccccc2n1
S. COCCN(C)c1cc(C)c2ccccc2n1
T. Cc1cc(N2CCOCC2)nc2ccccc12
Form: Sort by [inhibition] Order [ ascending ] // rank by listing labels in the order requested Q, T, R, S, P
(Q: -6.62%, T: 2.35%, R: 9.79%, S: 22.2%, P: 37.5%)

----------
# TARGET_SYSTEM: UniProtKB Q61143
# EXPERIMENTAL_DETAILS: mouse TRPC6 channel blockers, analog testing – HEK293 cells, membrane potential dye, single concentration, selectivity assay for selective TRPC4 inhibitor project, SAR follow-up (AID 492981)
# CONDITION: membrane potential dye fluorescence, at 10 µM, active compounds read high
Results filed as inconclusive are left out.
OUTCOME_MEASURE: inhibition (%)

Reference set (5 entries):
Cc1cc(N2CCN(CC3CCCO3)CC2)nc2ccccc12 (stereo not drawn) = 14.3
Cc1cc(N2CCN(c3ccncc3)CC2)nc2ccccc12 = 61.2
Cc1cc(N2CCCC(O)C2)nc2ccccc12 (stereo not drawn) = 26.7
COc1ccccc1N1CCN(c2cc(C)c3ccccc3n2)CC1 = 11.7
Cc1ccnc(N2CCCC2)c1 = -27.6

I. c1ccc(-c2cc(N3CCCCC3)nc3ccccc23)cc1
II. Cc1ccnc(N2CCCCC2)c1
III. Cc1cc(N2CCCC2)nc2ccccc12
IV. Cc1cc(N2CCCCC2)nc2ccc(F)cc12
Order the items by recorded inhibition; the first position goes to the largest value. // rank by listing labels in the order requested III, I, IV, II

----------
# TARGET_SYSTEM: UniProt:Q61143
# EXPERIMENTAL_DETAILS: mouse TRPC6 channel blockers, analog testing – HEK293 cells, membrane potential dye, single concentration, selectivity assay for selective TRPC4 inhibitor project, SAR follow-up (AID 492981)
# CONDITION: membrane potential dye fluorescence, at 10 µM, active compounds read high
Results filed as inconclusive are left out.
OUTCOME_MEASURE: inhibition (%)

CCc1ccc2nc(N3CCCCC3)cc(C)c2c1 = 13.6
Cc1cc(N(C)CCN(C)C)nc2ccccc12 = 18.1
FC(F)(F)c1cc(N2CCCC2)nc2ccccc12 = 11.5

a. Cc1cc(N2CC(C)CC(C)C2)nc2ccccc12 (stereo unspecified)
b. c1ccc(-c2cc(N3CCCC3)nc3ccccc23)cc1
c. Cc1cc(N2CCCCC2)nc2c(C)cccc12
Order the items by recorded inhibition; the first position goes to the largest value. // rank by listing labels in the order requested a, c, b
